method.description: Water solubility
Format: physicochemical
run.parameters: pH 3.6, read-out: Solubility
measurement.label: solubility

| compound | measurement.label | result |
| --- | --- | --- |
| CNC(=O)c1c(C)oc2cc(Oc3ccnc4cc(OCCN5CCOCC5)ccc34)ccc12 [Bis-maleate Form I] | solubility | ≥ 150 mg/mL |

====

method.description: Water solubility
Format: physicochemical
run.parameters: pH 3.4, read-out: Solubility
measurement.label: solubility

| molecule | result |
| --- | --- |
| CNC(=O)c1c(C)oc2cc(Oc3ccnc4cc(OCCN5CCOCC5)ccc34)ccc12 [Bis-HBr Form I] | > 30 mg/mL |

====

method.description: Water solubility
Format: physicochemical
run.parameters: pH 3.8, read-out: Solubility

| molecule | solubility |
| --- | --- |
| CNC(=O)c1c(C)oc2cc(Oc3ccnc4cc(OCCN5CCOCC5)ccc34)ccc12 [Bis-maleate Form III] | ≥ 30 mg/mL |
